- Test system: OVCAR-5 ovarian
- Procedure Text: NCI-60 one-dose screen, 48 h (100 = growth as untreated, 0 = no growth, -100 = all killed)
- Particulars: 10 µM unless noted
About 83,000 compounds went through this panel and 20% of them were active in at least one assay; those are over-represented in the sample as a whole.
Binary classification by growth, with 90% as an inclusive lower bound for satisfied; all other cases are not satisfied.

{"Compound": "CCN(CC)CCCCNc1ccc(NCCCCN(CC)CC)c2c1C(=O)c1ccccc1C2=O", "Test Target": "OVCAR-5 ovarian", "Class Assignment": "satisfied"}
{"Compound": "O=S(=O)(Nc1ccc(F)c(Cl)c1)c1ccc(-c2cnc(C3CC3)o2)cc1", "Test Target": "OVCAR-5 ovarian", "Class Assignment": "not satisfied"}
{"Compound": "C=CC[N+]1(CCO)CCN=C1CCCCCCCCCCCCC (stereo not given)", "Test Target": "OVCAR-5 ovarian", "Class Assignment": "not satisfied"}
{"Compound": "COc1ccc2nc3cc(Cl)ccc3c(N3CCN(c4nccc(Nc5ccccc5)n4)CC3)c2c1", "Test Target": "OVCAR-5 ovarian", "Class Assignment": "satisfied"}
